B1: library; numbered along this chain (parent)
chain: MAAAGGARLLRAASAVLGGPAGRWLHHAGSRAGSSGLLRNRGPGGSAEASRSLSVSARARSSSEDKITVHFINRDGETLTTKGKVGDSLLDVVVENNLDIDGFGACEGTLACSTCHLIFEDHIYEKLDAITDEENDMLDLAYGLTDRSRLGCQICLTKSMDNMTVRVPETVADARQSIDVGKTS

- Variants of: B1
- assay_details: scaled log2 fold change in cell abundance, elesclomol vs control (0 = silent mean, 1 = nonsense mean) (scaled log2 ratio); higher = higher viability under elesclomol (loss of FDX1 cuproptosis function);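 further: variant abundance is its share of total variant reads in each endpoint sample, from next-generation sequencing of the integrated ORF PCR-amplified out of genomic DNA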
- measurement_context: with HEK293T FDX1 KO; elesclomol 40 nM; glucose 10 mM; 11 days
property_measured: scaled log2 fold change

[[record]]
mutation_key = "G36W"
observed = 1.33

[[record]]
mutation_key = "H122Q"
observed = 0.352

[[record]]
mutation_key = "K158E"
observed = 0.159

[[record]]
mutation_key = "Q153T"
observed = -0.179

[[record]]
mutation_key = "A105R"
observed = -0.155

[[record]]
mutation_key = "M163H"
observed = 0.257

[[record]]
mutation_key = "T183I"
observed = -0.426

[[record]]
mutation_key = "S63H"
observed = 0.218

[[record]]
mutation_key = "L79M"
observed = -0.649

[[record]]
mutation_key = "V16L"
observed = -0.316

[[record]]
mutation_key = "L127F"
observed = -0.405

[[record]]
mutation_key = "G108I"
observed = 1.37

[[record]]
mutation_key = "S177P"
observed = -0.486

[[record]]
mutation_key = "P168F"
observed = 0.798

[[record]]
mutation_key = "R175E"
observed = 0.643

[[record]]
mutation_key = "V16P"
observed = 0.175

[[record]]
mutation_key = "S113C"
observed = 0.699

[[record]]
mutation_key = "N97T"
observed = 0.415

[[record]]
mutation_key = "V165S"
observed = 0.568

[[record]]
mutation_key = "L117T"
observed = 0.185

[[record]]
mutation_key = "I154Q"
observed = 0.268

[[record]]
mutation_key = "T131H"
observed = 0.267

